Would you kindly list DC50 for each of these compounds?
target: AR (androgen receptor) protein in VCaP cells (Homo sapiens, UniProt P10275); construct: endogenous in cells; host or cells: VCaP cells; assay: VCAP AR Degradation Assay; assay type: cell-based; details: 24 h, AR ELISA, concentration of compound when AR level = 50% of DMSO control
Sequence (P10275 whole entry): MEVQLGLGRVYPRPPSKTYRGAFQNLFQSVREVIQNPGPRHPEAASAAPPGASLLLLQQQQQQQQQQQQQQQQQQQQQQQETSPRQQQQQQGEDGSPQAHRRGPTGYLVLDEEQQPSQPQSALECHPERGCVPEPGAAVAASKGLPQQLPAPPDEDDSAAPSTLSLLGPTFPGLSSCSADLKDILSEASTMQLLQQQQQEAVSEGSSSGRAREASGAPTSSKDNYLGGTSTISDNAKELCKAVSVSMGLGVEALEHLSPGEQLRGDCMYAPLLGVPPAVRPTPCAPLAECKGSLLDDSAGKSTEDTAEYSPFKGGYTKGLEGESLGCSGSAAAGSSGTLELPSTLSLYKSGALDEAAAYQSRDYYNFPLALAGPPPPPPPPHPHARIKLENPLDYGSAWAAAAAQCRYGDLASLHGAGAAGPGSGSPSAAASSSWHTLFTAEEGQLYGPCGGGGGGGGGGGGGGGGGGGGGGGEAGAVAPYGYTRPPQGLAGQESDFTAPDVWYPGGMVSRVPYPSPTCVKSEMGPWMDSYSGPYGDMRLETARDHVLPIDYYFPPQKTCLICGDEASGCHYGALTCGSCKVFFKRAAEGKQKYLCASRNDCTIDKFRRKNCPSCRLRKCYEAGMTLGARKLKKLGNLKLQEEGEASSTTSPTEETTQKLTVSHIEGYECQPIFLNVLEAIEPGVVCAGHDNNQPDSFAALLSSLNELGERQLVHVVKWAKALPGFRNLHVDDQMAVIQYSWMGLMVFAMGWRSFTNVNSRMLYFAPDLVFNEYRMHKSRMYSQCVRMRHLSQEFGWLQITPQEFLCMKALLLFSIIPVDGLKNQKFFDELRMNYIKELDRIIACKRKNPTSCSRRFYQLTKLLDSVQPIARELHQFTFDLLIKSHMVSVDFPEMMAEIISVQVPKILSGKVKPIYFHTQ
Structures can show the parent of a compound that is named as a salt.

Compound	Measurement
C[C@@H]1CN(CCC[C@H]2CC[C@H](N3C(=S)N(c4cnc(C#N)c(Cl)c4)C(=O)C3(C)C)CC2)C[C@H](C)N1CC(=O)Nc1cccc2c(C3CCC(=O)NC3=O)nn(C)c12 (some centres unmarked)	2 to 5 nM
C[C@@H]1CN(CCC[C@H]2CC[C@H](N3C(=S)N(c4ccc(C#N)c(C(F)(F)F)c4)C(=O)C3(C)C)CC2)C[C@H](C)N1CC(=O)Nc1cccc2c(C3CCC(=O)NC3=O)nn(C)c12 (some centres unmarked) [Cmpd 2, hydrochloride]	2 to 5 nM
C[C@@H]1C[C@H](CCO[C@H]2CC[C@H](N3C(=S)N(c4cnc(C#N)c(C(F)(F)F)c4)C(=O)C3(C)C)CC2)C[C@H](C)N1CC(=O)Nc1cccc2c(C3CCC(=O)NC3=O)nn(C)c12 (some centres unmarked)	< 2 nM

I'm hoping you can list DC50 for every compound here, please.
1. C[C@@H]1CN(CCCC[C@H]2CC[C@H](N3C(=S)N(c4ccc(C#N)c(C(F)(F)F)c4)C(=O)C3(C)C)CC2)C[C@H](C)N1CC(=O)Nc1cccc2c(C3CCC(=O)NC3=O)nn(C)c12 (some centres unmarked)
2. C[C@@H]1C[C@H](CCO[C@H]2CC[C@H](N3C(=S)N(c4ccc(C#N)c(C(F)(F)F)c4)C(=O)C3(C)C)CC2)C[C@H](C)N1CC(=O)Nc1cccc2c(C3CCC(=O)NC3=O)nn(C)c12 (some centres unmarked) [Cmpd 13, hydrochloride]

**A:**
["2 to 5 nM", "2 to 5 nM"]
